# EXPERIMENTAL_TARGET: T1, human IL-6 (human, UniProt P05231 30-212)
# T1 construct: also called interleukin-6
# T1 sequence (P05231 30-212 limits assumed): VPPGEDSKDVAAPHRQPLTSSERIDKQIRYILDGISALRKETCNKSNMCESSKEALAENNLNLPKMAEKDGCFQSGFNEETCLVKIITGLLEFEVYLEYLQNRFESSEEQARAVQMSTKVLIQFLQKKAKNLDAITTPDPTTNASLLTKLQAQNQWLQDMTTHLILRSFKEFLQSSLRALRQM
# PROTOCOL_DESCRIPTION: SPR (Biacore T200), antibody from cell supernatant captured on Protein A, IL-6 flowed over, 37 C
# Procedure: Those four positions were selected based on their tolerance for mutations as observed in bacterial and mammalian screens. […] These cultures were centrifuged and supernatants containing secreted antibodies were harvested and diluted in HBS-EP+ running buffer (1:20 ratio). Antibodies were captured on a Protein A chip (GE) by injecting 1:20 cell supernatant dilutions at 10 μL/min for 60 seconds. […]
pKd: −log10 of the molar value.

BINDER	pKd
anti-IL-6 antibody, heavy chain I51V, G66D / light chain WT (antibody, human IgG1, V domains shown, Derived as m2; Engineered human IgG1) VH: EVQLVESGGGLVQPGGSLRLSCAASGFTFSPFAMSWVRQAPGKGLEWVAKVSPGGSWTYYSDTVTDRFTFSLDTSKSTAYLQMNSLRAEDTAVYYCARQLWGYYALDIWGQGTLVTVSS VL: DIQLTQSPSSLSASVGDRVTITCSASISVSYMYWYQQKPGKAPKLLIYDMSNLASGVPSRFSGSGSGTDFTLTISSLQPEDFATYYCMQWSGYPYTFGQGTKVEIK	11.43
anti-IL-6 antibody, heavy chain T65Q, G66D / light chain WT (antibody, human IgG1, V domains shown, Derived as m2; Engineered human IgG1) VH: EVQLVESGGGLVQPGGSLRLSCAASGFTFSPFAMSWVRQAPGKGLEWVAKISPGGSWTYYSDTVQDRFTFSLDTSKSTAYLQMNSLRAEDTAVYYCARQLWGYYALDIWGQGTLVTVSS VL: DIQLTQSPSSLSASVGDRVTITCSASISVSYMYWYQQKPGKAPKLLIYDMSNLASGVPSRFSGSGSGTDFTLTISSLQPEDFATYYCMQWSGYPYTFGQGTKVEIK	9.80
anti-IL-6 antibody, heavy chain S35E, G66D / light chain WT (antibody, human IgG1, V domains shown, Derived as m2; Engineered human IgG1) VH: EVQLVESGGGLVQPGGSLRLSCAASGFTFSPFAMEWVRQAPGKGLEWVAKISPGGSWTYYSDTVTDRFTFSLDTSKSTAYLQMNSLRAEDTAVYYCARQLWGYYALDIWGQGTLVTVSS VL: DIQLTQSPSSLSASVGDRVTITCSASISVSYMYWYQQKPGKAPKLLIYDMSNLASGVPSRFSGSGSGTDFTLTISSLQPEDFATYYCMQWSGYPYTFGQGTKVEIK	9.24

Cited source for all entries: patent US20240368267A1
